Test: Intra-dialytic Mesna kinetics in 3 ESRD hemodialysis patients
Assay type: in vivo, human
Conditions: human, plasma; shortly after administration, 5 mg/kg iv, 3 patients
Experimental: To assess baseline total plasma Hcy concentrations, 5 ml blood samples (EDTA) were drawn pre- and post-dialysis for all 7 dialysis sessions during the 14 day study period. On day 5 (corresponding to the third dialysis session) blood samples were also drawn at various times throughout the dialysis treatment (0.5, 1.0, 2.0 and 3.0 hours) to determine baseline kinetic data. […]
Endpoint: concentration at 4 min

| Compound | Endpoint | Observed |
| --- | --- | --- |
| O=S(=O)(O)CCS.[Na] [Mesna, sodium 2-mercaptoethane sulfonic acid] | concentration at 4 min | 296 µM |
